# Measurement Target: Env of HIV-1 strain 3016.v5.c45 (HIV-1)
# Measurement Description: cell-based or functional assay
Each record here notes measured neutralization IC50.
Numeric answer only, unit mg/L assumed.

- Binder: "γ3κ3 (antibody, V domains shown) VH: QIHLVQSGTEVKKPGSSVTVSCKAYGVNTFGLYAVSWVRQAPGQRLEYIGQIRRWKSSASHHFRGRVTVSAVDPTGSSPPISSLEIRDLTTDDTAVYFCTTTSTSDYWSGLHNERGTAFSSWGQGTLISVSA VL: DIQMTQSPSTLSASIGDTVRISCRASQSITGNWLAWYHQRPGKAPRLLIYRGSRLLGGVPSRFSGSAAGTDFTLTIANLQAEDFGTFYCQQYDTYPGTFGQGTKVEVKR"
  Output Unit: "mg/L"
  neutralization IC50: 0.347

Read the next record carefully.
(Q) Which neutralization IC50 is listed for γ22κ18 (antibody, V domains shown) VH: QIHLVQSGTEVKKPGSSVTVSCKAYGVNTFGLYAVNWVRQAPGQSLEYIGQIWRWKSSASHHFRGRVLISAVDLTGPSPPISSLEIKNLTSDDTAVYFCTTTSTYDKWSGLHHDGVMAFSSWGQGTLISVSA VL: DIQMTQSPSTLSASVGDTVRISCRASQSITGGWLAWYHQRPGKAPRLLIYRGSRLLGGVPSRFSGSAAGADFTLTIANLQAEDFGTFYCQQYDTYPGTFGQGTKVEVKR ?
(A) 13.3
